Recorded values, source patent US11642336B2.

system.name: human 5-HT2A (Homo sapiens (Human), UniProt P28223)
assay.details: cell-based
Type: cell-based
measurement.conditions: agonist potency, n = 3-4; read-out: 5-HT2A [pEC50 ± S.E.M.] (converted)
Structures can show the parent of a compound that is named as a salt.
observation.type: log10(EC50) (log10 of the value in nM)
Could you please treat all values as log10 of EC50 in nM?

compound="COc1cc([C@H]2CCCNC2)c(OC2CC2)cc1C(F)(F)F [Compound 54, hydrochloride]" observation_type=log10(EC50) result=3.25
compound="COc1cc(C(F)(F)F)c(OC)cc1C1CCC(C)NC1 (single isomer, unassigned) [Compound 38, hydrochloride]" observation_type=log10(EC50) result=2.19

Recorded log10(EC50) for CCc1cc(OC)c([C@H]2CCCNC2)cc1OC [Compound 31, hydrochloride] , please?
2.06

Quick one: log10(EC50) of "COc1cc([C@@H]2CCCNC2)c(OC)cc1SC(C)C" ?
2.19

Given "CCOc1cc(CC)c(OC)cc1[C@@H]1CCCNC1" , state its recorded log10(EC50).
2.14

Look at this compound and give its reported log10(EC50). CCOc1cc([C@H]2CCCNC2)c(OC)cc1C(F)(F)F.Cl [Compound 19, hydrochloride]
2.50
